Hi there, I'd appreciate the recorded pIC50 for every entry that follows.
Target: Human recombinant MetAP2 (Homo sapiens, UniProt P50579)
Sequence (P50579 whole entry): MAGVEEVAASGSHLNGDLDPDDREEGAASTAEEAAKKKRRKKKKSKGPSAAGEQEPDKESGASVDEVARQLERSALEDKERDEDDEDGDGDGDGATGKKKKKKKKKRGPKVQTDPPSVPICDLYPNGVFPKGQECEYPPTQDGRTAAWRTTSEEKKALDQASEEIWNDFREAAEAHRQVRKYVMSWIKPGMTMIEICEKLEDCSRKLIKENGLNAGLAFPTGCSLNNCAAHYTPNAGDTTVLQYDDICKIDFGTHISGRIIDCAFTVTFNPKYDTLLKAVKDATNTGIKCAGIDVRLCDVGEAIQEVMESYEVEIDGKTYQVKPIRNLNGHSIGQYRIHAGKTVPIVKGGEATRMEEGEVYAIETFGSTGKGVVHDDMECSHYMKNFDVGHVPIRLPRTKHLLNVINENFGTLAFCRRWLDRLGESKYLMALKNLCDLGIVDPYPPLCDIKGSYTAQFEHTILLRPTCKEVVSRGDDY
Test: recombinant human MetAP2 inhibition assay (MAS substrate, amino acid oxidase/Amplex red fluorescence)
Conditions: manganese enzyme, 30 minutes at 25° C., pH 7.5, 0.75 mM MAS substrate, 1% DMSO
Experimental: Compounds are tested for their capacity to inhibit recombinant human MetAP2 activity using the following assay. Human recombinant MetAP2 expressed in Sf9 cells followed by affinity purification and EDTA treatment to remove endogenous active site cation was dialysed against MnCl2 to produce the manganese enzyme used in the assay. […] The fluorescent signal was detected using a multiwell fluorimeter. […]
pIC50: −log10 of the molar value.

For this compound ( `CCN(CC)C/C=C\c1cc(F)ccc1S(=O)(=O)Nc1ccc2c(c1C(=O)O)OCc1cccn1-2` ), measured pIC50 is > 7.30

For this compound ( `CCN(CC)C/C=C\c1cc(F)ccc1S(=O)(=O)Nc1ccc2c(ccn3nccc23)c1C(=O)O` ), measured pIC50 is > 7.30

For this compound ( `CCN(CC)C/C=C\c1cc(F)ccc1S(=O)(=O)Nc1ccc2c(c1C(=O)O)CCn1nccc1-2` ), measured pIC50 is 6.30 to 7.30

For this compound ( `CCN(CC)C/C=C\c1cc(F)ccc1S(=O)(=O)Nc1ccc2c(c1C(=O)O)OCc1nccn1-2` ), measured pIC50 is > 7.30
